Target: T1, human CD19 (human, UniProt P15391 20-556)
T1 construct: also called B-cell surface antigen B4; B-cell antigen CD19
T1 sequence: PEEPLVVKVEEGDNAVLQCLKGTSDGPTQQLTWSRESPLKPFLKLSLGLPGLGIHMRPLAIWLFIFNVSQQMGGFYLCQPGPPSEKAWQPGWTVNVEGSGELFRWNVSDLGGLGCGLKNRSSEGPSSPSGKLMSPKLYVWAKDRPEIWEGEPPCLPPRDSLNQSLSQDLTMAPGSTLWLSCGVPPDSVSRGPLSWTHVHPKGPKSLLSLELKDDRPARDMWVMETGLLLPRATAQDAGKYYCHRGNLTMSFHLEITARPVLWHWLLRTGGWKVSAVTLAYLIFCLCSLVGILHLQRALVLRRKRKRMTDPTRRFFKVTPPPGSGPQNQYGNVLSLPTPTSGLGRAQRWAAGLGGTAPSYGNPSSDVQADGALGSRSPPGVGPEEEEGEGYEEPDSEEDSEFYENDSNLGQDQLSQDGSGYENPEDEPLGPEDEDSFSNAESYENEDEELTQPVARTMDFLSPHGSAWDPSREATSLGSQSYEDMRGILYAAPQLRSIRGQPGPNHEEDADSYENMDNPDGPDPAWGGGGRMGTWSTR
Test: binding affinity relative to the parent H1L1 mAb (Example 5); assay and format not named on the sheet
In plain terms, low Fold change binding, meaning strictly below 2 fold, gives Fulfilled, and everything else gives Not fulfilled.

binder="H1.204 / L1.162 (antibody, V domains shown, vs H1L1 (Kabat): VH D55E/K58E/S100cT; VL L27cQ/S27eA/G29A/A55N/F96I; also called 4G7 H1.204_L1.162) VH: EVQLVESGGGLVKPGGSLKLSCAASGYTFTSYVMHWVRQAPGKGLEWIGYINPYNEGTEYNEKFQGRVTISSDKSISTAYMELSSLRSEDTAMYYCARGTYYYGTRVFDYWGQGTLVTVSS VL: DIVMTQSPATLSLSPGERATLSCRSSKSLQNANANTYLYWFQQKPGQSPQLLIYRMSNLNSGVPDRFSGSGSGTEFTLTISSLEPEDFAVYYCMQHLEYPITFGAGTKLEIK" group_label="Not fulfilled"
binder="H1 / L1.64 (antibody, V domains shown, vs H1L1 (Kabat): VL F96I; also called 4G7 H1_L1.64) VH: EVQLVESGGGLVKPGGSLKLSCAASGYTFTSYVMHWVRQAPGKGLEWIGYINPYNDGTKYNEKFQGRVTISSDKSISTAYMELSSLRSEDTAMYYCARGTYYYGSRVFDYWGQGTLVTVSS VL: DIVMTQSPATLSLSPGERATLSCRSSKSLLNSNGNTYLYWFQQKPGQSPQLLIYRMSNLASGVPDRFSGSGSGTEFTLTISSLEPEDFAVYYCMQHLEYPITFGAGTKLEIK" group_label=Fulfilled
binder="H1.202 / L1.163 (antibody, V domains shown, vs H1L1 (Kabat): VH D55E/S100cT; VL L27cQ/S27eA/G29S/A55N/F96I; also called 4G7 H1.202_L1.163) VH: EVQLVESGGGLVKPGGSLKLSCAASGYTFTSYVMHWVRQAPGKGLEWIGYINPYNEGTKYNEKFQGRVTISSDKSISTAYMELSSLRSEDTAMYYCARGTYYYGTRVFDYWGQGTLVTVSS VL: DIVMTQSPATLSLSPGERATLSCRSSKSLQNANSNTYLYWFQQKPGQSPQLLIYRMSNLNSGVPDRFSGSGSGTEFTLTISSLEPEDFAVYYCMQHLEYPITFGAGTKLEIK" group_label="Not fulfilled"
binder="H1 / L1.80 (antibody, V domains shown, vs H1L1 (Kabat): VL Y34F; also called 4G7 H1_L1.80) VH: EVQLVESGGGLVKPGGSLKLSCAASGYTFTSYVMHWVRQAPGKGLEWIGYINPYNDGTKYNEKFQGRVTISSDKSISTAYMELSSLRSEDTAMYYCARGTYYYGSRVFDYWGQGTLVTVSS VL: DIVMTQSPATLSLSPGERATLSCRSSKSLLNSNGNTYLFWFQQKPGQSPQLLIYRMSNLASGVPDRFSGSGSGTEFTLTISSLEPEDFAVYYCMQHLEYPFTFGAGTKLEIK" group_label=Fulfilled
binder="H1.191 / L1.163 (antibody, V domains shown, vs H1L1 (Kabat): VH K58E/S100cT; VL L27cQ/S27eA/G29S/A55N/F96I; also called 4G7 H1.191_L1.163) VH: EVQLVESGGGLVKPGGSLKLSCAASGYTFTSYVMHWVRQAPGKGLEWIGYINPYNDGTEYNEKFQGRVTISSDKSISTAYMELSSLRSEDTAMYYCARGTYYYGTRVFDYWGQGTLVTVSS VL: DIVMTQSPATLSLSPGERATLSCRSSKSLQNANSNTYLYWFQQKPGQSPQLLIYRMSNLNSGVPDRFSGSGSGTEFTLTISSLEPEDFAVYYCMQHLEYPITFGAGTKLEIK" group_label="Not fulfilled"
binder="H1 / L1.9 (antibody, V domains shown, vs H1L1 (Kabat): VL S52L; also called 4G7 H1_L1.9) VH: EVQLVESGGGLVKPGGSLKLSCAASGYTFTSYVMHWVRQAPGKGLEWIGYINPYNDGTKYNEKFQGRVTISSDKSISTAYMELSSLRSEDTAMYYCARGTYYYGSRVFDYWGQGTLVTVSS VL: DIVMTQSPATLSLSPGERATLSCRSSKSLLNSNGNTYLYWFQQKPGQSPQLLIYRMLNLASGVPDRFSGSGSGTEFTLTISSLEPEDFAVYYCMQHLEYPFTFGAGTKLEIK" group_label=Fulfilled
binder="H1 / L1.96 (antibody, V domains shown, vs H1L1 (Kabat): VL A55N; also called 4G7 H1_L1.96) VH: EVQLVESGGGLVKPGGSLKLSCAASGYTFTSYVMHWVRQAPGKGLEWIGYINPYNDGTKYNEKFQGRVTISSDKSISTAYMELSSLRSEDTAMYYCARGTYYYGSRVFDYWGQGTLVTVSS VL: DIVMTQSPATLSLSPGERATLSCRSSKSLLNSNGNTYLYWFQQKPGQSPQLLIYRMSNLNSGVPDRFSGSGSGTEFTLTISSLEPEDFAVYYCMQHLEYPFTFGAGTKLEIK" group_label=Fulfilled
binder="H1 / L1.46 (antibody, V domains shown, vs H1L1 (Kabat): VL N53H; also called 4G7 H1_L1.46) VH: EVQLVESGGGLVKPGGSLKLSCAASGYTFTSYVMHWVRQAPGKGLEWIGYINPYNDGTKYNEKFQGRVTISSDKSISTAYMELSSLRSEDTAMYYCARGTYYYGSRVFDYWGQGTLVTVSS VL: DIVMTQSPATLSLSPGERATLSCRSSKSLLNSNGNTYLYWFQQKPGQSPQLLIYRMSHLASGVPDRFSGSGSGTEFTLTISSLEPEDFAVYYCMQHLEYPFTFGAGTKLEIK" group_label=Fulfilled
binder="H1 / L1.54 (antibody, V domains shown, vs H1L1 (Kabat): VL N53G; also called 4G7 H1_L1.54) VH: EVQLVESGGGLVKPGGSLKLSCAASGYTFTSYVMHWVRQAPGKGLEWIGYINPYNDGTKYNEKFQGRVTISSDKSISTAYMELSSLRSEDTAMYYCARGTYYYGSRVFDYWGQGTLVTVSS VL: DIVMTQSPATLSLSPGERATLSCRSSKSLLNSNGNTYLYWFQQKPGQSPQLLIYRMSGLASGVPDRFSGSGSGTEFTLTISSLEPEDFAVYYCMQHLEYPFTFGAGTKLEIK" group_label=Fulfilled

Would you kindly look at the next entry?
Prompt: Is the reported Fold change binding for H1.52 / L1.163 (antibody, V domains shown, vs H1L1 (Kabat): VH S100cT; VL L27cQ/S27eA/G29S/A55N/F96I; also called 4G7 H1.52_L1.163) VH: EVQLVESGGGLVKPGGSLKLSCAASGYTFTSYVMHWVRQAPGKGLEWIGYINPYNDGTKYNEKFQGRVTISSDKSISTAYMELSSLRSEDTAMYYCARGTYYYGTRVFDYWGQGTLVTVSS VL: DIVMTQSPATLSLSPGERATLSCRSSKSLQNANSNTYLYWFQQKPGQSPQLLIYRMSNLNSGVPDRFSGSGSGTEFTLTISSLEPEDFAVYYCMQHLEYPITFGAGTKLEIK strictly below 2 fold?
Response: Not fulfilled
